Each recorded value in this set is attributed to ChEMBL document CHEMBL3875209.

# Assay Notes: Antiproliferative activity against human MCF7 cells after 48 hrs by MTT assay
# Assay type: functional, cell-based
# Condition Summary: MCF7, 48 h
pIC50: −log10 of the molar value.
# binarize pIC50: threshold 5 inclusive, high side 1, low side 0

{"Smiles Repr": "COc1cc(-c2cn(-c3ccc(-c4nc5cc(OC)c(OC)c(OC)c5s4)cc3C)nn2)cc(OC)c1OC", "Classification": 0}

Kindly determine if pIC50 recorded for COc1ccc2nc(-c3ccc(-n4cc(-c5cc(OC)c(OC)c(OC)c5)nn4)c(OC)c3)sc2c1 is above or exactly 5. 0

Kindly determine if pIC50 recorded for COc1cc(OC)c2sc(-c3ccc(-n4nnnc4-c4cc(OC)c(OC)c(OC)c4)c(C)c3)nc2c1 is above or exactly 5. 0

Kindly determine if pIC50 recorded for COc1cc(OC)c2sc(-c3ccc(-n4cc(-c5cc(OC)c(OC)c(OC)c5)nn4)c(OC)c3)nc2c1 is above or exactly 5. 1

Kindly determine if pIC50 recorded for COc1cc(-c2nncn2-c2ccc(-c3nc4cc(OC)c(OC)c(OC)c4s3)cc2C)cc(OC)c1OC is above or exactly 5. 1
